B1: tRNA (parent)
chain: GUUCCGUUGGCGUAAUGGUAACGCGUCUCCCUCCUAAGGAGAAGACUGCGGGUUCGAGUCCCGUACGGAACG

Variants of: B1
assayComment: yeast fitness relative to wild type (ratio to wild type); higher = fitter; tRNA-Arg(CCU), competitive growth, 37 C, YPD
Variants at the floor of the assay were thinned out.
In this section, each of the variants is paired with its reported yeast fitness.
The answer should be written as a number, with no unit following it.

Before answering, review these 6 worked examples.
alteration: U19C U28C C46U
experimentalResult: 0.712
--
alteration: C5U G12A A69C
experimentalResult: 0.724
--
alteration: C5U A43U C49U
experimentalResult: 0.555
--
alteration: C46A G63A G67A
experimentalResult: 0.552
--
alteration: C11G C49U C62U
experimentalResult: 0.535
--
alteration: C11A C24G C30G
experimentalResult: 0.599

Problem: May I ask what yeast fitness has been recorded for U19G A42C A43C ?
Result: 0.951

Problem: Please give the measured yeast fitness for this variant: C5U A14C A21C
Result: 0.552

Problem: Endpoint output: yeast fitness of G58C U59C A69U . Value?
Result: 0.679

Problem: Form field: reported yeast fitness of A15C C49G C55G
Result: 0.668

Problem: Recorded yeast fitness for G12A A45G C62U , please?
Result: 0.531

Problem: Dear colleague, I am looking for the recorded yeast fitness of the following variant: G17A A42G U64A
Result: 0.58

Problem: What measured yeast fitness goes with C5G G9A C27G ?
Result: 0.544

Problem: Look up yeast fitness: C24U U26C A40C
Result: 0.572

Problem: # input variant: C34G U64G ; wanted: its yeast fitness
Result: 0.518

Problem: Form field: reported yeast fitness of C31U A57C C66U
Result: 0.663

Problem: Requested field: yeast fitness. Item: A40C G51A
Result: 0.84

Problem: State the recorded yeast fitness for this entry: U19C G41C
Result: 0.987

Problem: I have this variant here, C29U C31U U54G A65C G67A , and I need its recorded yeast fitness.
Result: 0.549

Problem: May I ask what yeast fitness has been recorded for G6A A45C A70G ?
Result: 0.536

Problem: Value lookup for yeast fitness; key = C22A A70G
Result: 0.948

Problem: Tell me the measured yeast fitness of G12A A42C , please.
Result: 0.89

Problem: yeast fitness lookup needed for G10C G38C , thanks.
Result: 0.538

Problem: If you can, please state the reported yeast fitness value of U13C G41C A70C .
Result: 0.566

Problem: Which yeast fitness is listed for U3C C33A C61G ?
Result: 0.731

These measurements were taken from the RNAGym collection of RNA variant scans (doi:10.1126/science.aae0568).
